The compounds below have reported IC50 for Type II 5α-reductase from human prostate (Homo sapiens, UniProt P31213).
Observed Property: IC50 (nM)

P = C[C@]12CCC(C(=O)O)=CC1=CCc1cc(Cl)ccc12 [Example 1]
Q = C[C@]12CCC(c3nnn[nH]3)=CC1=CCc1cc(Cl)ccc12 [Example 2]
Task: # argmax over IC50 for candidates P and Q I would appreciate it if you answered with the label of your choice.
Output: Q
